Let's look at some binders and their measured Maximum inhibition rate.
Target: Human ST2-fc (human) (UniProt Q01638)
Experiment: competition ELISA, coated ST2-fc, competitor IL33-his
Measurement type: Maximum inhibition rate (%)

| Binder | Measured value |
| --- | --- |
| 5888-153-H1L1 (antibody, human IgG4 S228P, kappa, V domains shown) VH: QVQLVQSGAEVKKPGASVKVSCKASGYTFTDYELHWVRQAPGQGLEWMGTIDPETGDTVYNQKFKARVTMTADKSTSTAYMELSSLRSEDTAVYYCTRAFYNDYDDGFAYWGQGTLVTVSS VL: EIVMTQSPATLSLSPGERATLSCSVSSSVSYMHWYQQKPGQAPRRLIYDTSKLASGIPARFSGSGSGTDYTLTISSLEPEDAAVYYCQQWNSSPLTFGGGTKVEIKR | 93.8 |
| 5888-379-H0L0 (antibody, human IgG4 S228P, kappa, V domains shown) VH: QVQLVQSGAEVKKPGASVKVSCKASGYTFINYGMNWVRQAPGQRLEWMGWINTYIGEPTYGDNFKGRVTITRDTSASTAYMELSSLRSEDTAVYYCAREGDGFAYWGQGTLVTVSS VL: DIQMTQSPSSLSASVGDRVTITCKSSQSLLYSGNQNNYLAWYQQKPGKVPKLLIYGASTRESGVPSRFSGSGSGTDFTLTISSLQPEDVATYYCQNDHSYPYTFGGGTKVEIKR | 90.5 |
| 5888-379-H1L0 (antibody, human IgG4 S228P, kappa, V domains shown, Humanized antibody) VH: QVQLVQSGAEVKKPGASVKVSCKASGYTFINYGMNWVRQAPGQRLEWMGWINTYIGEPTYGDNFKGRVTITRDTSASTAYMELSSLRSEDTAVYYCAREGEGFAYWGQGTLVTVSS VL: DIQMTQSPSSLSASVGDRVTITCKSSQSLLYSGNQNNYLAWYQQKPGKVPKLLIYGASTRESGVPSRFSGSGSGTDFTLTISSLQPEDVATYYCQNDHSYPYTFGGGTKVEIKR | 89.1 |
| 5888-153-H0L0 (antibody, human IgG4 S228P, kappa, V domains shown) VH: QVQLVQSGAEVKKPGASVKVSCKASGYTFTDYELHWVRQAPGQGLEWMGTIDPETGDTVYNQKFKARVTMTRDTSTSTVYMELSSLRSEDTAVYYCARAFYNDYDDGFAYWGQGTLVTVSS VL: EIVLTQSPATLSLSPGERATLSCSVSSSVSYMHWYQQKPGQAPRLLIYDTSKLASGIPARFSGSGSGTDFTLTISSLEPEDFAVYYCQQWNSSPLTFGGGTKVEIKR | 92.9 |
| 5888-116-H0L1 (antibody, human IgG4 S228P, kappa, V domains shown, Humanized antibody) VH: QVQLVQSGAEVKKPGASVKVSCKASGYTFTDSEMYWVRQAPGQGLEWMGAIDPETGDTAFNQKFKGRVTMTRDTSTSTVYMELSSLRSEDTAVYYCARAFDNDNDDGFAYWGQGTMVTVSS VL: DIQMTQSPSSLSASVGDRVTITCSASSSVNYMHWYQQKPGKAPKRLIYDTSKLASGVPSRFSGSGSGTDYTFTISSLQPEDAATYYCQQWSSNPLTFGQGTKLEIKR | 94.1 |
| 5888-379-H2L1 (antibody, human IgG4 S228P, kappa, V domains shown, Humanized antibody) VH: QVQLVQSGAEVKKPGASVKVSCKASGYTFINYGMNWVRQAPGQRLEWMGWINTYIGEPTYGDNFKGRVTITRDTSASTAYMELSSLRSEDTAVYYCAREGDAFAYWGQGTLVTVSS VL: DIQMTQSPSSLSASVGDRVTITCKSSQSLLYSGNQNNYLAWYQQKPGKVPKLLIYGASTRESGVPSRFSGSGSGTDFTLTISSLQPEDLATYYCQNDHSYPYTFGGGTKVEIKR | 84.8 |
| 5887-41-H1L0 (antibody, human IgG4 S228P, kappa, V domains shown, Humanized antibody) VH: QVQLQESGPGLVKPSQTLSLTCTVSGYSITSDYAWDWIRQPPGKGLEWIGYIRYSGDTYYNPSLKSRVTISRDTSKNQFSLKLSSVTAADTAVYYCATTMMDTMDYWGQGTLVTVSS VL: DIVLTQSPASLAVSPGQRATITCRASKSVSTSGNSYMHWYQQKPGQPPKLLIYLASNLESGVPARFSGSGSGTDFTLTINPVEANDTANYYCQHSREFPLTFGQGTKLEIKR | 92.8 |
